Each entry below lists one item and its recorded IC50 value.
target: Xaa-Pro aminopeptidase 1 (Homo sapiens); assay: Inhibition against Aminopeptidase P from human platelets.
# value in µM; strip the unit string

C[C@H](NC(=O)[C@@H]1CCCN1C(=O)[C@@H]1CCCN1C(=O)[C@@H](O)[C@H](N)Cc1ccccc1)C(N)=O : 18

Please look up its IC50: "NC(=O)[C@@H]1CCCN1C(=O)[C@@H]1CCCN1C(=O)[C@@H](O)[C@H](N)Cc1ccccc1"
250

====

assay: Inhibition against Aminopeptidase P from bovine.; type: single protein
Each entry below lists one item and its recorded IC50 value.

C[C@H](NC(=O)[C@@H]1CCCN1C(=O)C1CCCCC1C(=O)NO)C(N)=O (stereo in doubt; 16) : > 5 mM
C[C@H](NC(=O)[C@@H]1CCCN1C(=O)C1CCCCC1C(=O)NO)C(N)=O (stereo in doubt; 15) : > 0.5 mM

Please look up its IC50: "C[C@H](NC(=O)[C@@H]1CCCN1C(=O)[C@@H]1C[C@@H](O)CN1C(=O)[C@@H](O)[C@H](N)Cc1ccccc1)C(N)=O"
> 2 mM

====

Each entry below lists one item and its recorded pIC50 value.
target: Xaa-Pro aminopeptidase 1 (Homo sapiens, UniProt Q9NQW7); experiment: Inhibition against cytosolic Aminopeptidase P from human heart.
Sequence (Q9NQW7 whole entry): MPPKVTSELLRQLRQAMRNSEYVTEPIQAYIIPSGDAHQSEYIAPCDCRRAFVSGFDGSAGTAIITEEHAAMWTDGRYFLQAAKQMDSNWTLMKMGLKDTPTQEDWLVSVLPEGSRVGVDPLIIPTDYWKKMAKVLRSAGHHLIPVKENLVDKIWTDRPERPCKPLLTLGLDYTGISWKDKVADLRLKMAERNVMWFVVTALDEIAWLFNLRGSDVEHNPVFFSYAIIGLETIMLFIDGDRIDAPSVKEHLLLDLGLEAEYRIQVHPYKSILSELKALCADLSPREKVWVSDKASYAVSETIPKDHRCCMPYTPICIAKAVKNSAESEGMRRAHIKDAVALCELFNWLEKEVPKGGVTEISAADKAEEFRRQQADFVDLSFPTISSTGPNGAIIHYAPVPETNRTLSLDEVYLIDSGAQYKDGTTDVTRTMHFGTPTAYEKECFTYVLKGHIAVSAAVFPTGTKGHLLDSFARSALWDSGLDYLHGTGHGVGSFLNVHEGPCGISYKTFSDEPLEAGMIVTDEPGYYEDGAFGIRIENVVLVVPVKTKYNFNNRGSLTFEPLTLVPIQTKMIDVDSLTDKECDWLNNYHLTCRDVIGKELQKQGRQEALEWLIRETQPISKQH
pIC50: −log10 of the molar value.

C[C@H](NC(=O)[C@@H]1CCCN1C(=O)C1CCCCC1C(=O)NO)C(N)=O (stereo in doubt; 14) : < 2.52
C[C@H](NC(=O)[C@@H]1CCCN1C(=O)[C@@H]1C[C@@H](O)CN1C(=O)[C@@H](O)[C@H](N)Cc1ccccc1)C(N)=O : < 2.70
C[C@H](NC(=O)[C@@H]1CCCN1C(=O)C1CCCCC1C(=O)NO)C(N)=O (stereo in doubt; 16) : < 2.30

--- query ---
So what pIC50 did C[C@H](NC(=O)[C@@H]1CCCN1C(=O)C1CCCCC1C(=O)NO)C(N)=O (stereo in doubt; 15) get with Xaa-Pro aminopeptidase 1 (Homo sapiens, UniProt Q9NQW7)?
< 2.70
